Source: PubChem BioAssay (NCI)

- Tested on: OVCAR-4 ovarian
- method: NCI-60 one-dose screen, 48 h (100 = growth as untreated, 0 = no growth, -100 = all killed)
- particulars: 10 µM unless noted
About 83,000 compounds went through this panel and 20% of them were active in at least one assay; those are over-represented in the sample as a whole.
Group membership follows growth per the scheme low bin: < 70%; mid bin: ≥ 70% and < 90%; high bin: ≥ 90%

Example entries and their recorded answers appear below.
Q: Tag the class for COc1ccc(/C=C2\SC(=Nc3cc(C)[nH]n3)NC2=O)cc1
Result: high bin

Q: Tag the class for CCOC(=O)c1sc(N)c(C(=O)OCC)c1C
Result: low bin

Q: Tag the class for c1ccc(CNc2ncnc3ccc(-c4cnc5[nH]ncc5c4)cc23)cc1
Result: mid bin

Q: Tag the class for CCCSc1nc(Nc2ccc(/C(C)=N\NC(N)=S)cc2)c(C#N)c(-c2ccc(OC)cc2)n1
Result: low bin

Q: Tag the class for O=C(CCN1C(=O)/C(=C/c2ccccc2)SC1=S)N1CCOCC1
Result: high bin

Q: Tag the class for CCOC(=O)c1c(Nc2ccccc2)nn2c(-c3ccco3)c(C#N)cnc12
Result: mid bin

Now look at this entry.
Q: Tag the class for Nc1c(C(=O)Nc2ccc(Cl)cc2)sc2nc(-c3cnccn3)cc(-c3cccs3)c12
Result: low bin

* * *

# maps each entry to its growth
- System: 786-0 renal
- method: NCI-60 one-dose screen, 48 h (100 = growth as untreated, 0 = no growth, -100 = all killed)
- particulars: 10 µM unless noted
Compounds without any hit were thinned out: in the full panel of roughly 83,000, 20% have a hit.
Express your answer in %, writing the number without its unit.

Below: 6 compounds and their reported growth.
Q: What does the record list as growth for O=C(CSc1nc2sc3c(c2c(=O)n1-c1ccc(Cl)cc1)CCCC3)NNC(=O)Nc1ccc(Cl)c(C(F)(F)F)c1 ?
Result: 52.2

Q: What does the record list as growth for CC(C)(C)Nc1nc2c(OCCc3ccccc3)cccn2c1-c1ccc(Cl)cc1 ?
Result: 26.9

Q: What does the record list as growth for CCOC(=O)c1c(Nc2ccccc2)nn2c(N)c(C#N)c(-c3ccc(F)cc3)nc12 ?
Result: 80.8

Q: What does the record list as growth for N#Cc1nc(-c2ccccc2)oc1N1CCC(CO)C1 (stereo not given) ?
Result: 101

Q: What does the record list as growth for C#Cc1nc(C2=C(C)C(=N\O)/C(=N/O)C2)cs1 ?
Result: -90.9

Q: What does the record list as growth for COc1cc2cc(Oc3ccc(NC(=O)c4cccc(C(F)(F)F)c4)cc3)c(C)nc2cc1OCCN1CCCCC1 ?
Result: 55.4

New cases:
Q: What does the record list as growth for NS(=O)(=O)c1cccc(Nc2nc(SCC(=O)c3ccc(Cl)cc3)nc3ccccc23)c1 ?
Result: 74.4

Q: What does the record list as growth for Cn1cc(-c2cc(N)n3nc(-c4cn(C)c5ccc(F)cc45)cc3n2)c2cc(F)ccc21 ?
Result: -87.7

Q: What does the record list as growth for Clc1ccc2oc3c(OCCCn4ccnc4)c4ccccc4nc3c2c1 ?
Result: 46.5

Q: What does the record list as growth for Cc1ccc(/C=C/c2nn3c(-c4ccco4)nnc3s2)cc1C ?
Result: 100

* * *

- Tested on: COLO 205 colon
- method: NCI-60 one-dose screen, 48 h (100 = growth as untreated, 0 = no growth, -100 = all killed)
- particulars: 10 µM unless noted
About 83,000 compounds went through this panel and 20% of them were active in at least one assay; those are over-represented in the sample as a whole.
test-readout: growth (%)
Express your answer in %, writing the number without its unit.

Below: 2 molecules and their reported growth.
Q: What does the record list as growth for COc1ccc(-c2cc(C(=O)N=Nc3c(O)[nH]c4ccccc34)c3ccccc3n2)cc1OC ?
Result: 98.3

Q: What does the record list as growth for CCN1C(=S)N(c2ccccc2)C2NC(=O)N(/N=C/C=C/c3ccccc3OC)C21 (stereo not given) ?
Result: 122

New cases:
Q: What does the record list as growth for COc1ccc(C(=O)/C=C/c2ccc(OCc3ccc(Cl)cc3)c(OC)c2)cc1OC ?
Result: 88.4

Q: What does the record list as growth for CS(=O)(=O)c1ccc(-c2nc3ccccn3c2-c2nc3ccc([N+](=O)[O-])cc3[nH]2)cc1 ?
Result: 103

Q: What does the record list as growth for O=C(Oc1ccc2ccc(=O)oc2c1)c1ccc(Cl)cc1 ?
Result: 114

Q: What does the record list as growth for N#Cc1c(-c2ccc(Cl)cc2)nc(SCc2ccc(F)cc2)nc1N1CCNCC1 ?
Result: -27.2

Q: What does the record list as growth for N#Cc1c(-c2ccc(F)cc2)nc2c(C#N)c(Nc3ccccc3)nn2c1N ?
Result: 110

Q: What does the record list as growth for COc1ccc(COc2ccc(/C=C3/C(=O)Nc4cc(Cl)ccc43)cc2)cc1 ?
Result: 101

* * *

# maps each entry to its growth
- Tested on: NCI-H322M lung
- method: NCI-60 one-dose screen, 48 h (100 = growth as untreated, 0 = no growth, -100 = all killed)
- particulars: 10 µM unless noted
Compounds without any hit were thinned out: in the full panel of roughly 83,000, 20% have a hit.
Express your answer in %, writing the number without its unit.

Below: 5 molecules and their reported growth.
Q: What does the record list as growth for c1ccc2c(NCCCN3CCOCC3)c3oc4ccccc4c3nc2c1 ?
Result: -17.5

Q: What does the record list as growth for Fc1ccc(-c2nc(C(Cl)Cl)nc3cc(-c4ccccc4)nn23)cc1 ?
Result: -41.6

Q: What does the record list as growth for CC(=O)Oc1ccccc1C(=O)Nc1ccc(C(=O)/C=C/c2cccs2)cc1 ?
Result: 106

Q: What does the record list as growth for CC(=O)Nc1cc(F)cc(-c2ccc3[nH]cc(-c4ccccc4)c3n2)c1 ?
Result: 33.4

Q: What does the record list as growth for CN(C)CCCOc1c2ccc(Cl)cc2nc2c1oc1ccc(Cl)cc12 ?
Result: 18.8

New cases:
Q: What does the record list as growth for CCOC(=O)c1c(Nc2ccccc2)nn2c(N)c(C#N)c(-c3ccc(F)cc3)nc12 ?
Result: 101

Q: What does the record list as growth for Cc1ccc(C(=O)Nc2cccc(C(F)(F)F)c2)cc1Nc1nc(-c2cnccn2)nc2c1cnn2C ?
Result: 73

Q: What does the record list as growth for N/C(=N\c1nc2c(Br)cccc2s1)C(Br)Br ?
Result: 31.8

Q: What does the record list as growth for CCOC(=O)c1sc(N)c(C(=O)OCC)c1C ?
Result: 83.1

Q: What does the record list as growth for C#Cc1nc(C2=C(C)/C(=N/OCc3ccccc3)CC2)cs1 ?
Result: 92.6

Q: What does the record list as growth for Cn1cc(-c2cc(N)n3nc(-c4cn(C)c5ccc(Br)cc45)cc3n2)c2cc(Br)ccc21 ?
Result: 86.2

* * *

- Tested on: OVCAR-5 ovarian
- method: NCI-60 one-dose screen, 48 h (100 = growth as untreated, 0 = no growth, -100 = all killed)
- particulars: 10 µM unless noted
- Procedure: Growth inhibition of the OVCAR-5 human tumor cell line is measured as a screen for anti-cancer activity. Cells are grown in 96 well plates and exposed to the test compound for 48 hours. Compounds are tested at a single concentration, which is 10^-5 M for most compounds. The reported endpoint is percent growth (GI% or GIPRCNT), where numbers from 0 - 100% represent growth inhibition, and numbers from -100% - 0 represent cell death. For example, a value of 40 represents 60% growth inhibition. […]
Compounds without any hit were thinned out: in the full panel of roughly 83,000, 20% have a hit.
# maps each entry to its growth
Express your answer in %, writing the number without its unit.

Q: What does the record list as growth for COc1ccc(NC(=O)c2sc3nc(-c4cnccn4)cc(-c4cccs4)c3c2N)cc1 ?
Result: 93.1

Q: What does the record list as growth for NS(=O)(=O)c1ccc(Nc2nc(Nc3ccccc3)nc(-n3nc(-c4ccccc4)cc3-c3ccccc3)n2)cc1 ?
Result: 78.1

Q: What does the record list as growth for O=C(c1ccc(Cl)cc1)C1[C@H](c2ccc(Cl)cc2)[C@@H](c2ccccc2)NC12C(=O)Nc1ccc(Br)cc12 (stereo partly drawn) ?
Result: 52.8

Q: What does the record list as growth for CC1=C(C)C(=O)C(Nc2ccccc2)=C(Cl)C1=O ?
Result: 104

Q: What does the record list as growth for O=C(Oc1ccc2ccc(=O)oc2c1)c1ccc(Cl)cc1 ?
Result: 110

Q: What does the record list as growth for CCC/C=C/C=C/C(=O)N[C@@H](Cc1cc(F)cc(F)c1)C(=O)N[C@@H]1C(=O)N2CCC[C@H]2C(=O)N2CCCC[C@H]2C(=O)N[C@@H](C)C(=O)N2C[C@H](C)C[C@H]2C(=O)O[C@H]1C ?
Result: 24.6

New cases:
Q: What does the record list as growth for O=C(CSc1nc2sc3c(c2c(=O)n1-c1ccc(Cl)cc1)CCCC3)NNC(=O)Nc1cccc(C(F)(F)F)c1 ?
Result: 52.6

Q: What does the record list as growth for O=C1Nc2ccccc2Oc2ccc(S(=O)(=O)CC3CO3)cc21 (stereo not drawn) ?
Result: 85.5
